Ref: patent US20240298601A1

Parameter ED50 SiRM: see the listing below.
system: SiRM plants (mutant SiALS Ala188Val); settings: herbicide rate reducing plant growth (shoot DW) by 50%; 16 DAT; n=5; calculated from fitted curve, for Imazamox above the tested rates
OBSERVABLE: ED50 SiRM (g a.i. ha^−1)

> print(dat)
                                   molecule  observable  reading
1  CCCOc1nn(C(=O)NS(=O)(=O)c2ccccc2C(=O)OC)c(=O)n1C   ED50 SiRM       96
2  COc1ncc(F)c2nc(S(=O)(=O)Nc3c(F)cccc3F)nn12   ED50 SiRM       62
3  COCc1cnc(C2=NC(C)(C(C)C)C(=O)N2)c(C(=O)O)c1 (centres unmarked)   ED50 SiRM      823
4  COc1cc(OC)nc(NC(=O)NS(=O)(=O)c2ncccc2OCC(F)(F)F)n1   ED50 SiRM       69
5  CCc1cnc(C2=NC(C)(C(C)C)C(=O)N2)c(C(=O)O)c1 (centres unmarked)   ED50 SiRM      161
6  Cc1cnc(C2=NC(C)(C(C)C)C(=O)N2)c(C(=O)O)c1 (centres unmarked)   ED50 SiRM      563
7  COc1cc(OC)nc(NC(=O)NS(=O)(=O)c2cc(NC=O)ccc2C(=O)N(C)C)n1   ED50 SiRM      165
8  COc1cc(OC)nc(Sc2cccc(Cl)c2C(=O)O)n1 [Pyrithiobac sodium]   ED50 SiRM      202
